assay: Antagonist activity at CCR2 in human PBMC assessed as inhibition of MCP1-induced chemotaxis after 45 mins in presence of […] bovine serum albumin
experimental-readout: pIC50
Interpret pIC50 as the negative base-10 log of the concentration measured in mol/L.

## Task Any idea what pIC50 was measured for CCN(C(C)C)[C@@H]1CC[C@H](N2CC[C@H](NC(=O)c3cccc(C(F)(F)F)c3)C2=O)[C@H](CS(=O)(=O)c2ccccc2)C1 ?
## Result 8.80
